Reference source for all entries: patent US20030166645A1

A short record of MIC observed with E coli follows.
experimentalEndpoint: MIC

* CCn1c(S)nnc1-c1ccc([N+](=O)[O-])o1 [Compound 126] | > 64 µg/mL
* O=[N+]([O-])c1ccc(-c2nnc(S)n2-c2ccc(Cl)cc2)o1 [Compound 139] | > 64 µg/mL
* O=[N+]([O-])c1ccc(-c2nnc(S)[nH]2)o1 [Compound 117] | > 64 µg/mL

====

Test system: E faecalis
Assay: Microdilution antimicrobial susceptibility test (MIC)
Assay type: cell-based
Details: broth microdilution, 18-24 h, MIC = 90% inhibition of growth
Entries and their measured MIC E faecalis MIC2 follow.
experimentalEndpoint: MIC E faecalis MIC2

* O=[N+]([O-])c1ccc(-c2nnc(S(=O)(=O)O)n2Cc2ccccc2)o1 | >64 µg/mL
* O=[N+]([O-])c1ccc(-c2nnc(S(=O)(=O)O)n2C2CCCCC2)o1 | >64 µg/mL
* O=[N+]([O-])c1ccc(-c2nnc(S(=O)(=O)O)n2-c2ccccc2)o1 | >64 µg/mL
